- tested-target: human GRP receptor (human, UniProt P30550 1-384)
- Sequence (P30550 whole entry): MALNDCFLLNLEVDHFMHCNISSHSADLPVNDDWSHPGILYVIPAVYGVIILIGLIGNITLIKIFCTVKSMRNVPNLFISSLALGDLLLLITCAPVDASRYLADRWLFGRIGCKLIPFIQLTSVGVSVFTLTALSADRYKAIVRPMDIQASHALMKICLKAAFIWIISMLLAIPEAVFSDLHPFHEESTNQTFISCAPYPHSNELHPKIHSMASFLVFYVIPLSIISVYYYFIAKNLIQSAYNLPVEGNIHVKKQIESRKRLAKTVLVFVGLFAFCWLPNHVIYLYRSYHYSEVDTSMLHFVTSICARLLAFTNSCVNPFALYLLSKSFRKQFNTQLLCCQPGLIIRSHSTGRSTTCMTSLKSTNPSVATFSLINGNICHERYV
- experiment-description: cell-based or functional assay
Starred links: 1 amine or outer side, 2 acyl side, 3 side chain; linkers in the order of their positions; H or OH if unused. Non-standard residues stand in square brackets, D forms with d. *: point of attachment. Trp(7-Me) = Cc1cccc2c(C[C@H](N)C(=O)O)c[nH]c12; C20 diacid = O=C(O)CCCCCCCCCCCCCCCCCCC(=O)*; d(γGlu) = O=C(O)[C@@H](CCC(=O)[*:2])N[*:1]; C18 diacid = O=C(O)CCCCCCCCCCCCCCCCC(=O)*; γGlu = O=C(O)[C@H](CCC(=O)[*:2])N[*:1]; Palmitoyl = CCCCCCCCCCCCCCCC(=O)*; Met(O) = CS(=O)CC[C@H](N)C(=O)O; Nle = CCCC[C@H](N)C(=O)O; AEEA = NCCOCCOCC(=O)O; Aib = CC(C)(N)C(=O)O; βAla = NCCC(=O)O
The entries below come with measured hIP1 GRPR EC50 values attached.
Write the answer as a number in nM, unit excluded.

Consider the reported hIP1 GRPR EC50 for these binders:
binder: {C20 diacid}-[γGlu][AEEA][AEEA]GQHWAV[βAla]HL[Met(O)]-NH2 (SMILES CC(C)C[C@H](NC(=O)[C@H](Cc1c[nH]cn1)NC(=O)CCNC(=O)[C@@H](NC(=O)[C@H](C)NC(=O)[C@H](Cc1c[nH]c2ccccc12)NC(=O)[C@H](Cc1c[nH]cn1)NC(=O)[C@H](CCC(N)=O)NC(=O)CNC(=O)COCCOCCNC(=O)COCCOCCNC(=O)CC[C@H](NC(=O)CCCCCCCCCCCCCCCCCCC(=O)O)C(=O)O)C(C)C)C(=O)N[C@@H](CCS(C)=O)C(N)=O) [Peptide 276]
unit-symbol: nM
experimental-result: 63.8
//
binder: Palmitoyl-[d(γGlu)][AEEA][AEEA]GNHW[Aib]V[dA]HL[Nle]-NH2 (SMILES CCCCCCCCCCCCCCCC(=O)N[C@H](CCC(=O)NCCOCCOCC(=O)NCCOCCOCC(=O)NCC(=O)N[C@@H](CC(N)=O)C(=O)N[C@@H](Cc1c[nH]cn1)C(=O)N[C@@H](Cc1c[nH]c2ccccc12)C(=O)NC(C)(C)C(=O)N[C@H](C(=O)N[C@H](C)C(=O)N[C@@H](Cc1c[nH]cn1)C(=O)N[C@@H](CC(C)C)C(=O)N[C@@H](CCCC)C(N)=O)C(C)C)C(=O)O) [Peptide 11]
unit-symbol: nM
experimental-result: 3.2
//
binder: {C18 diacid}-[γGlu][AEEA][AEEA][AEEA][AEEA]GRH[Trp(7-Me)]AV[dA]HL[Nle]-NH2 (SMILES CCCC[C@H](NC(=O)[C@H](CC(C)C)NC(=O)[C@H](Cc1c[nH]cn1)NC(=O)[C@@H](C)NC(=O)[C@@H](NC(=O)[C@H](C)NC(=O)[C@H](Cc1c[nH]c2c(C)cccc12)NC(=O)[C@H](Cc1c[nH]cn1)NC(=O)[C@H](CCCNC(=N)N)NC(=O)CNC(=O)COCCOCCNC(=O)COCCOCCNC(=O)COCCOCCNC(=O)COCCOCCNC(=O)CC[C@H](NC(=O)CCCCCCCCCCCCCCCCC(=O)O)C(=O)O)C(C)C)C(N)=O) [Peptide 117]
unit-symbol: nM
experimental-result: 16.5

Now look at this one.
Just so you know, measured hIP1 GRPR EC50 for {C18 diacid}-[d(γGlu)][AEEA][AEEA]GNH[Trp(7-Me)]AV[dA]HL[Nle][Aib]-NH2 (SMILES CCCC[C@H](NC(=O)[C@H](CC(C)C)NC(=O)[C@H](Cc1c[nH]cn1)NC(=O)[C@@H](C)NC(=O)[C@@H](NC(=O)[C@H](C)NC(=O)[C@H](Cc1c[nH]c2c(C)cccc12)NC(=O)[C@H](Cc1c[nH]cn1)NC(=O)[C@H](CC(N)=O)NC(=O)CNC(=O)COCCOCCNC(=O)COCCOCCNC(=O)CC[C@@H](NC(=O)CCCCCCCCCCCCCCCCC(=O)O)C(=O)O)C(C)C)C(=O)NC(C)(C)C(N)=O) [Peptide 76] came out at 358
